B1: library; numbered along this chain (parent)
chain: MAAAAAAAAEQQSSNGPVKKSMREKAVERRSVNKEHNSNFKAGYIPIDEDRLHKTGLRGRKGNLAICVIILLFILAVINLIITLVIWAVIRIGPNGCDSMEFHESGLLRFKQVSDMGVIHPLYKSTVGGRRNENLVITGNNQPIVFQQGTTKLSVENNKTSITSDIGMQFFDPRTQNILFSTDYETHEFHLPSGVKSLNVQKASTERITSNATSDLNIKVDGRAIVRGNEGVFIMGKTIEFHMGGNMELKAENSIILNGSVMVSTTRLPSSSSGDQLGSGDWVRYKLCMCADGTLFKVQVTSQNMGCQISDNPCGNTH

variants of: B1; assay: SGCB cell-surface expression functional score (HA stain, bin4 vs bin1, normalised to synonymous) (log10 ratio); higher = more cell-surface SGCB (functional)
Rule: SGCB cell-surface expression functional score (log10) of 0.1 or more gives t; anything lower gives f.

V226T | t
P17A | t
S105W | t
T266D | t
F171Y | f
V232Q | f
P269C | t
G93K | f
E206M | t
T138G | f
G128V | f
P46S | t
K19V | f
S164I | f
N246E | f
H242F | t
L179R | t
F189S | f
I81N | f
S204F | f
G293N | t
F170A | f
V27A | t
N37L | f
L122C | f
N15T | t
L72Q | f
I208S | f
V68D | f
C290K | f
F241Q | f
S38H | f
I225P | f
N199V | t
V18C | f
N211K | f
W87L | f
G16L | f
Y123W | t
N33G | t
E49G | t
V283R | f
N132H | t
Q148I | f
Q303K | f
T294C | f
M1F | f
F40M | f
A65F | t
S270G | t
E252V | t
I208N | f
D215F | f
F171T | t
R51E | f
K25Q | t
V195M | f
V89I | f
N258C | t
N39P | f
M305L | f
L52H | f
G56N | f
Q12F | f
R29P | t
Q169W | f
N253M | f
G129K | f
M100C | f
N177A | t
A2W | f
R51L | t
Q12M | f
A212Y | t
V32S | t
E101Y | f
L268Q | f
N253K | t
T160G | f
P192Q | f
T151E | f
N134E | f
Q11C | t
I144E | f
V155G | f
I90S | f
N217L | t
I225G | f
A88L | t
